Entries and their pIC50 values follow.
Tested on: MCF7 complex spheroid growth, % test/control
Experiment: Anticancer human tumor MCF7 cell line growth inhibition [Asc];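 also: spheroids exposed to compounds for 7 days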
Details: curve of first compound; second compound 0.00316 µM
pIC50: −log10 of the molar value.

compound	target.of.assay	pIC50
C=CC(=O)N1CCN(c2nc(=O)n(-c3c(C)ccnc3C(C)C)c3nc(-c4c(O)cccc4F)c(F)cc23)C(C)C1 (stereo not drawn) + CNC(C)C(=O)NC1CN(S(=O)(=O)c2cccc(S(=O)(=O)N3CCC4CCC(C(=O)NC(c5ccccc5)c5ccccc5)N4C(=O)C(NC(=O)C(C)NC)C3)c2)CCC2CCC(C(=O)NC(c3ccccc3)c3ccccc3)N2C1=O	MCF7 complex spheroid growth, % test/control	> 7.50
C=C(F)C(=O)N1CCN(c2nc(OCC3CCCN3C)nc3c2CCN(c2cccc4cccc(Cl)c24)C3)CC1CC#N (stereo not drawn) + CNC(C)C(=O)NC1CN(S(=O)(=O)c2cccc(S(=O)(=O)N3CCC4CCC(C(=O)NC(c5ccccc5)c5ccccc5)N4C(=O)C(NC(=O)C(C)NC)C3)c2)CCC2CCC(C(=O)NC(c3ccccc3)c3ccccc3)N2C1=O	MCF7 complex spheroid growth, % test/control	> 7.50

Moving on to the next compound.
GET /values?readout=pIC50&item= CCN1CCN(Cc2ccc(Nc3ncc(F)c(-c4cc(F)c5nc(C)n(C(C)C)c5c4)n3)nc2)CC1 + CNC(C)C(=O)NC1CN(S(=O)(=O)c2cccc(S(=O)(=O)N3CCC4CCC(C(=O)NC(c5ccccc5)c5ccccc5)N4C(=O)C(NC(=O)C(C)NC)C3)c2)CCC2CCC(C(=O)NC(c3ccccc3)c3ccccc3)N2C1=O > 8.50

* * *

Test system: MCF7 complex spheroid growth, % test/control
Experiment: Anticancer human tumor MCF7 cell line growth inhibition [Asc];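 also: spheroids exposed to compounds for 7 days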;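 as to viability, T/C: 100% = DMSO vehicle control wells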
Conditions: second compound 0.1 µM; first compound 0.01 µM; stronger effect = lower value
measure.name: viability, T/C (%)
Report the value in % with no unit label.

GET /values?readout=viability, T/C&item= Cn1ncnc1[C@H]1c2n[nH]c(=O)c3cc(F)cc(c23)N[C@@H]1c1ccc(F)cc1 + Cc1c(S(C)(=O)=O)c(-c2cc(F)cc(N3CCN(c4ccc(NS(=O)(=O)c5ccc(NC(CCN6CCC(C(=O)OCCCP(=O)(O)O)CC6)CSc6ccccc6)c(S(=O)(=O)C(F)(F)F)c5)cc4)CC3)c2)c(-c2ccc(Cl)cc2)n1C(C)C 57.7

GET /values?readout=viability, T/C&item= CCN1CCN(Cc2ccc(Nc3ncc(F)c(-c4cc(F)c5nc(C)n(C(C)C)c5c4)n3)nc2)CC1 + Cc1c(S(C)(=O)=O)c(-c2cc(F)cc(N3CCN(c4ccc(NS(=O)(=O)c5ccc(NC(CCN6CCC(C(=O)OCCCP(=O)(O)O)CC6)CSc6ccccc6)c(S(=O)(=O)C(F)(F)F)c5)cc4)CC3)c2)c(-c2ccc(Cl)cc2)n1C(C)C 86

GET /values?readout=viability, T/C&item= CCN1CCN(Cc2ccc(Nc3ncc(F)c(-c4cc(F)c5nc(C)n(C(C)C)c5c4)n3)nc2)CC1 + CNC(C)C(=O)NC1CN(S(=O)(=O)c2cccc(S(=O)(=O)N3CCC4CCC(C(=O)NC(c5ccccc5)c5ccccc5)N4C(=O)C(NC(=O)C(C)NC)C3)c2)CCC2CCC(C(=O)NC(c3ccccc3)c3ccccc3)N2C1=O 10.9

* * *

Test system: MCF7 complex spheroid growth, % test/control
Test: Anticancer human tumor MCF7 cell line growth inhibition [Asc];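 also: spheroids exposed to compounds for 7 days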;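 as to viability, T/C: 100% = DMSO vehicle control wells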
Details: second compound 0.316 µM; first compound 0.316 µM; stronger effect = lower value
Excerpt: Multicellular complex tumor spheroid response to apoptosis pathway targeting inhibitors Alrizomadlin, Pelcitoclax, and Dasminapant in combination with a variety of drugs and investigational agents in selected tumor cell lines […] Compounds. […] If the clinical Cmax for an agent had not been determined, the highest concentration tested was 10 microM. […]
Entries and their viability, T/C values follow.
Report the value in % with no unit label.

molecule	viability, T/C (%)
CNC(C)C(=O)NC1CN(S(=O)(=O)c2cccc(S(=O)(=O)N3CCC4CCC(C(=O)NC(c5ccccc5)c5ccccc5)N4C(=O)C(NC(=O)C(C)NC)C3)c2)CCC2CCC(C(=O)NC(c3ccccc3)c3ccccc3)N2C1=O (configuration not stated) + Cc1c(S(C)(=O)=O)c(-c2cc(F)cc(N3CCN(c4ccc(NS(=O)(=O)c5ccc(NC(CCN6CCC(C(=O)OCCCP(=O)(O)O)CC6)CSc6ccccc6)c(S(=O)(=O)C(F)(F)F)c5)cc4)CC3)c2)c(-c2ccc(Cl)cc2)n1C(C)C	19.2

GET /values?readout=viability, T/C&item= C#Cc1c(F)ccc2cc(O)cc(-c3ncc4c(N5CC6CCC(C5)N6)nc(OCC56CCCN5CC(F)C6)nc4c3F)c12 (configuration not stated) + Cc1c(S(C)(=O)=O)c(-c2cc(F)cc(N3CCN(c4ccc(NS(=O)(=O)c5ccc(NC(CCN6CCC(C(=O)OCCCP(=O)(O)O)CC6)CSc6ccccc6)c(S(=O)(=O)C(F)(F)F)c5)cc4)CC3)c2)c(-c2ccc(Cl)cc2)n1C(C)C 73.7

* * *

Entries and their pIC50 values follow.
Test system: MCF7 complex spheroid growth, % test/control
Assay: Anticancer human tumor MCF7 cell line growth inhibition [Asc];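 also: spheroids exposed to compounds for 7 days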
Conditions: curve of first compound; second compound 0.01 µM
pIC50: −log10 of the molar value.

compound	pIC50
NC1CCC(NC2CC2c2ccccc2)CC1 (configuration not stated) + CNC(C)C(=O)NC1CN(S(=O)(=O)c2cccc(S(=O)(=O)N3CCC4CCC(C(=O)NC(c5ccccc5)c5ccccc5)N4C(=O)C(NC(=O)C(C)NC)C3)c2)CCC2CCC(C(=O)NC(c3ccccc3)c3ccccc3)N2C1=O	> 9.50

Moving on to the next compound.
GET /values?readout=pIC50&item= NC(=O)C(=Cn1cnc(-c2cc(C(F)(F)F)cc(C(F)(F)F)c2)n1)c1cncnc1 + CNC(C)C(=O)NC1CN(S(=O)(=O)c2cccc(S(=O)(=O)N3CCC4CCC(C(=O)NC(c5ccccc5)c5ccccc5)N4C(=O)C(NC(=O)C(C)NC)C3)c2)CCC2CCC(C(=O)NC(c3ccccc3)c3ccccc3)N2C1=O > 9.02

* * *

System: MCF7 complex spheroid growth, % test/control
Experiment: Anticancer human tumor MCF7 cell line growth inhibition [Asc];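 also: spheroids exposed to compounds for 7 days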;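 as to viability, T/C: 100% = DMSO vehicle control wells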
Conditions: second compound 0.1 µM; first compound 0.1 µM; stronger effect = lower value
Excerpt: Multicellular complex tumor spheroid response to apoptosis pathway targeting inhibitors Alrizomadlin, Pelcitoclax, and Dasminapant in combination with a variety of drugs and investigational agents in selected tumor cell lines […] Compounds. […] If the clinical Cmax for an agent had not been determined, the highest concentration tested was 10 microM. […]
Entries and their viability, T/C values follow.
Report the value in % with no unit label.

compound	target.of.assay	result.value
C#Cc1c(F)ccc2cc(O)cc(-c3ncc4c(N5CC6CCC(C5)N6)nc(OCC56CCCN5CC(F)C6)nc4c3F)c12 (configuration not stated) + CNC(C)C(=O)NC1CN(S(=O)(=O)c2cccc(S(=O)(=O)N3CCC4CCC(C(=O)NC(c5ccccc5)c5ccccc5)N4C(=O)C(NC(=O)C(C)NC)C3)c2)CCC2CCC(C(=O)NC(c3ccccc3)c3ccccc3)N2C1=O	MCF7 complex spheroid growth, % test/control	10.4
O=C(c1ccc(F)c(F)c1Nc1ccc(I)cc1F)N1CC(O)([C@@H]2CCCCN2)C1 + CNC(C)C(=O)NC1CN(S(=O)(=O)c2cccc(S(=O)(=O)N3CCC4CCC(C(=O)NC(c5ccccc5)c5ccccc5)N4C(=O)C(NC(=O)C(C)NC)C3)c2)CCC2CCC(C(=O)NC(c3ccccc3)c3ccccc3)N2C1=O	MCF7 complex spheroid growth, % test/control	12.3
Cn1ncnc1[C@H]1c2n[nH]c(=O)c3cc(F)cc(c23)N[C@@H]1c1ccc(F)cc1 + Cc1c(S(C)(=O)=O)c(-c2cc(F)cc(N3CCN(c4ccc(NS(=O)(=O)c5ccc(NC(CCN6CCC(C(=O)OCCCP(=O)(O)O)CC6)CSc6ccccc6)c(S(=O)(=O)C(F)(F)F)c5)cc4)CC3)c2)c(-c2ccc(Cl)cc2)n1C(C)C	MCF7 complex spheroid growth, % test/control	49
NC1CCC(NC2CC2c2ccccc2)CC1 (configuration not stated) + CNC(C)C(=O)NC1CN(S(=O)(=O)c2cccc(S(=O)(=O)N3CCC4CCC(C(=O)NC(c5ccccc5)c5ccccc5)N4C(=O)C(NC(=O)C(C)NC)C3)c2)CCC2CCC(C(=O)NC(c3ccccc3)c3ccccc3)N2C1=O	MCF7 complex spheroid growth, % test/control	13.8

GET /values?readout=viability, T/C&item= Cn1ncnc1[C@H]1c2n[nH]c(=O)c3cc(F)cc(c23)N[C@@H]1c1ccc(F)cc1 + CNC(C)C(=O)NC1CN(S(=O)(=O)c2cccc(S(=O)(=O)N3CCC4CCC(C(=O)NC(c5ccccc5)c5ccccc5)N4C(=O)C(NC(=O)C(C)NC)C3)c2)CCC2CCC(C(=O)NC(c3ccccc3)c3ccccc3)N2C1=O 11.4

GET /values?readout=viability, T/C&item= C=C(F)C(=O)N1CCN(c2nc(OCC3CCCN3C)nc3c2CCN(c2cccc4cccc(Cl)c24)C3)CC1CC#N (configuration not stated) + Cc1c(S(C)(=O)=O)c(-c2cc(F)cc(N3CCN(c4ccc(NS(=O)(=O)c5ccc(NC(CCN6CCC(C(=O)OCCCP(=O)(O)O)CC6)CSc6ccccc6)c(S(=O)(=O)C(F)(F)F)c5)cc4)CC3)c2)c(-c2ccc(Cl)cc2)n1C(C)C 90.5

GET /values?readout=viability, T/C&item= CNC(C)C(=O)NC1CN(S(=O)(=O)c2cccc(S(=O)(=O)N3CCC4CCC(C(=O)NC(c5ccccc5)c5ccccc5)N4C(=O)C(NC(=O)C(C)NC)C3)c2)CCC2CCC(C(=O)NC(c3ccccc3)c3ccccc3)N2C1=O (configuration not stated) + Cc1c(S(C)(=O)=O)c(-c2cc(F)cc(N3CCN(c4ccc(NS(=O)(=O)c5ccc(NC(CCN6CCC(C(=O)OCCCP(=O)(O)O)CC6)CSc6ccccc6)c(S(=O)(=O)C(F)(F)F)c5)cc4)CC3)c2)c(-c2ccc(Cl)cc2)n1C(C)C 17
